Data origin, for the record: patent US20260242478A1

Molecular target: T1, Anti-CD28 scFv (VH - linker 1 - VL) (biotinylated (site not stated))
T1 construct: Biotinylated scFv captured on neutravidin coated plates in the panning ELISA
T1 sequence (scFv, as listed by the source): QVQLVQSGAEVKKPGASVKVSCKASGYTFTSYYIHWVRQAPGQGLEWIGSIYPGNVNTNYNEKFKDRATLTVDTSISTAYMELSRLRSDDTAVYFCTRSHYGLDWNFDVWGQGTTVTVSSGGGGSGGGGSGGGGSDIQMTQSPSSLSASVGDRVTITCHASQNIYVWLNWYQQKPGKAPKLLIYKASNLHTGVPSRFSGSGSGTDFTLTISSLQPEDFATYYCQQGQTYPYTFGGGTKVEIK
Experiment: phage ELISA; biotinylated anti-CD28 scFv on neutravidin plate, wells pre-incubated with soluble CD28 (competitor), anti-M13-HRP detection;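 further: bound clonal phage detected by peroxidase-labelled anti-M13 antibody, compared against wells given blocking buffer alone without soluble CD28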
CD28 scFv signal in presence of CD28 values, listed per item
Reported Metric: CD28 scFv signal in presence of CD28

[[record]]
binder = "MDWCPRDLWSVCFS (tested as crude phage supernatant) [Phage-290]"
reported_metric = "CD28 scFv signal in presence of CD28"
readout_number = 0.116

[[record]]
binder = "MDWCPRHLWFECFF (tested as crude phage supernatant) [Phage-300]"
reported_metric = "CD28 scFv signal in presence of CD28"
readout_number = 0.479

[[record]]
binder = "MDWCPRYLWTECFS (tested as crude phage supernatant) [Phage-303]"
reported_metric = "CD28 scFv signal in presence of CD28"
readout_number = 0.329

[[record]]
binder = "MDWCPRDLWFACFA (tested as crude phage supernatant) [Phage-282]"
reported_metric = "CD28 scFv signal in presence of CD28"
readout_number = 0.794

